target: MAPK14 (human)
pIC50: −log10 of the molar value.
Each entry below lists one item and its recorded pIC50 value.

molecule smiles: CS(=O)(=O)Nc1ccc(-c2cnc3ccc4ccncc4c3c2)cc1
pIC50: < 4.70

molecule smiles: CS(=O)(=O)Nc1ccc(-c2cnc3cccc(Nc4ncccn4)c3c2)cc1
pIC50: < 4.70

molecule smiles: CC(C)(C)NS(=O)(=O)c1ccc(-c2cnc3cccc(Nc4ccc(Cl)cn4)c3c2)cc1
pIC50: < 4.70

molecule smiles: Oc1ccc(-c2cnc3ccc4ccncc4c3c2)cc1
pIC50: < 4.70

molecule smiles: CS(=O)(=O)Nc1ccc(-c2cnc3cccc(Nc4ccc(Cl)cn4)c3c2)cc1
pIC50: < 4.70

Values were extracted from the Kinase Knowledgebase extract (Sharma et al. 2016).
